- target.of.assay: γ-secretase (Homo sapiens)
- Construct: endogenous in cells; host or cells: SKNBE2 human neuroblastoma cells (carrying hAPP 695 wild type as substrate)
- run.description: Screening for γ-secretase-modulating activity: Aβ42 in supernatant of SKNBE2 cells carrying hAPP 695 wild type (Alphalisa)
- Type: cell-based
- measurement.context: SKNBE2 human neuroblastoma cells carrying hAPP 695 wild type, overnight incubation, Aβ42 in cell supernatant
Measured IC50 of individual entries
measured.attribute: IC50

{"columns": ["substance.smiles", "test.result"],
 "data": [
  ["Cc1cn(-c2ccc3n(c2=O)CCN(Cc2c[nH]c4c(Cl)cc(Cl)cc24)C3=O)cn1", "30 nM"],
  ["Cc1cn(-c2ccc3n(c2=O)CCN(c2ccccc2C)C3=O)cn1", "> 10000 nM"],
  ["Cc1cn(-c2ccc3n(c2=O)C[C@@H](C)N(Cc2cccc(C(F)(F)F)c2C)C3=O)cn1", "480 nM"],
  ["Cc1cn(-c2ccc3n(c2=O)C[C@@H](C)N(Cc2cc(C(F)(F)F)ccc2Cl)C3=O)cn1", "280 nM"]
]}
